System: OVCAR-5 ovarian
RUN_DESCRIPTION: NCI tumour cell line growth inhibition, 48 h; in the data active means GI50 below about 0.43 µM; inactive means the rest
Please state which outcome applies, choosing from Y = active, N = inactive

Examples from the recorded data:
>  <COMPOUND>
O=C(CN1CCN(Cc2ccccc2Cl)CC1)NC1CC(=O)c2c(Br)sc(Br)c21 (stereo unspecified)

>  <STUDY_TARGET>
OVCAR-5 ovarian

>  <CLASSIFICATION>
N

$$$$
>  <COMPOUND>
COc1cc2c3c(n(CCCN4CCNCC4)c(=O)c2cc1OC)-c1cc2c(cc1C3=O)OCO2

>  <STUDY_TARGET>
OVCAR-5 ovarian

>  <CLASSIFICATION>
N

$$$$
>  <COMPOUND>
C[C@H](c1ccc(F)cc1CCCC(=O)O)N(c1cc(F)ccc1F)S(=O)(=O)c1ccc(Cl)cc1

>  <STUDY_TARGET>
OVCAR-5 ovarian

>  <CLASSIFICATION>
N

$$$$
>  <COMPOUND>
CN(C)C1CCN(Cc2ccc(NC(=O)c3cncc(C#Cc4cnc(N)c5ncccc45)c3)cc2C(F)(F)F)CC1

>  <STUDY_TARGET>
OVCAR-5 ovarian

>  <CLASSIFICATION>
N

$$$$
>  <COMPOUND>
CC1CCC2C(C)C(=O)OC3OC4(C)CCC1C32OO4 (stereo unspecified)

>  <STUDY_TARGET>
OVCAR-5 ovarian

>  <CLASSIFICATION>
N

$$$$

Req: Please indicate how the test categorized `COc1ccc(-c2cc(/C=C3\C(=O)Nc4cc(Cl)ccc43)[nH]n2)cc1` .
Resp: N

Req: Field entry: CCCCCCC1N=C(N)N=C(N)N1c1cccc(Cl)c1 (stereo unspecified)
Resp: N

Req: Field entry: `OCc1ccc(-c2csc(-c3ccc(CO)o3)c2)o1`
Resp: Y

Req: Field entry: `CC1(C)CC(=O)C=C(/C=C/Sc2c(Cl)c(Cl)nc(Cl)c2Cl)C1`
Resp: N

---

System: HCT-15 colon
RUN_DESCRIPTION: NCI tumour cell line growth inhibition, 48 h; in the data active means GI50 below about 0.43 µM; inactive means the rest
Please state which outcome applies, choosing from active, inactive

Examples from the recorded data:
>  <COMPOUND>
O=C(CN1CCN(Cc2ccccc2Cl)CC1)NC1CC(=O)c2c(Br)sc(Br)c21 (stereo unspecified)

>  <CLASSIFICATION>
inactive

$$$$
>  <COMPOUND>
O=C(/C=C/C12c3ccccc3C(c3ccccc31)C1C(=O)N(c3ccc(Cl)cc3)C(=O)C12)c1ccccn1 (stereo unspecified)

>  <CLASSIFICATION>
active

$$$$
>  <COMPOUND>
CN1CCN(C(=O)[C@@]2(C)CC[C@]3(C)CC[C@]4(C)C(=CC[C@@H]5[C@@]6(C)CCC(=O)NC(C)(C)[C@@H]6CC[C@]54C)[C@@H]3C2)CC1

>  <CLASSIFICATION>
inactive

$$$$
>  <COMPOUND>
Cc1ccc(-c2nc3nc(-c4ccc(F)cc4)nc(N4CCNCC4)c3o2)cc1

>  <CLASSIFICATION>
inactive

$$$$
>  <COMPOUND>
COc1ccc(-c2cc(/C=C3\C(=O)Nc4cc(Cl)ccc43)[nH]n2)cc1

>  <CLASSIFICATION>
inactive

$$$$

Req: Please indicate how the test categorized `CCC(C)(C)c1cc(O)c(C(C)(C)CC)cc1O` .
Resp: inactive

Req: Field entry: `CNC(=O)c1nn(C)c2c1C(C)(C)Cc1cnc(Nc3cccc(N4CCN(C)CC4)c3)nc1-2`
Resp: active

Req: Field entry: `CCN1CCC(CC(=O)Nc2n[nH]c3nnc(-c4cccc(F)c4F)cc23)CC1`
Resp: inactive

Req: Field entry: COc1ccc2c(c1)N(Cc1ccc(Cl)cc1)CCC2N1CCCC1=O (stereo unspecified)
Resp: inactive

Req: Field entry: `CN(C)C1CCN(Cc2ccc(NC(=O)c3cncc(C#Cc4cnc(N)c5ncccc45)c3)cc2C(F)(F)F)CC1`
Resp: inactive

Req: Field entry: `NC(=O)c1cccc2c(N[C@H](CN3CCC3)c3ccc(Cl)c(C(F)(F)F)c3)ncnc12`
Resp: inactive

---

Tested on: UACC-62 melanoma
RUN_DESCRIPTION: NCI tumour cell line growth inhibition, 48 h
QUANTITY_KIND: TGI

See these solved cases before continuing.
>  <COMPOUND>
CN1CCN(C(=O)CCC(=O)Nc2cc3c(c4ccccc24)-c2ccc4ccccc4c2C3)CC1

>  <TGI>
3.32 µM

$$$$
>  <COMPOUND>
CCN1CCC(CC(=O)Nc2n[nH]c3nnc(-c4cccc(F)c4F)cc23)CC1

>  <TGI>
> 25 µM

$$$$

Req: Item under review: OCC1OC2c3ccccc3COC2C1OCc1ccccc1 (stereo not given) . Reported TGI?
Resp: > 100 µM

Req: Field entry: `COC(=O)[C@H]1COC(=S)N1C(=O)[C@@H](C)[C@H](O)C(C)C`
Resp: > 100 µM

Req: Field entry: `COc1ccc2nc3c([N+](=O)[O-])ccc(NCCN(C)C)c3c(N)c2c1`
Resp: 3.63 µM

Req: Field entry: `COc1ccccc1NC(=S)N=Nc1c(O)[nH]c2ccccc12`
Resp: > 100 µM

Req: Field entry: `Cc1cc(=O)oc2cc(OCCCOc3ccc4c(C)cc(=O)oc4c3)ccc12`
Resp: > 100 µM

Req: Field entry: COc1cc(C2S/C(=C/c3ccccc3)C(=O)N2Cc2ccccc2)cc(OC)c1OC (stereo not given)
Resp: > 100 µM

Req: Field entry: `c1ccc2c(c1)SC(=C1Sc3ccccc3S1)S2`
Resp: > 100 µM

Req: Field entry: COc1cccc2c1C(=O)c1c(O)c3c(c(O)c1C2=O)C[C@@](O)(C(C)=O)CC3S(=O)(=O)O (stereo not given in full)
Resp: > 100 µM

---

Below are compounds with their GI50 as measured on MDA-MB-435.

See these solved cases before continuing.
>  <TEST_SMILES>
O=C([O][Hg][c]1ccccc1)c1ccccc1

>  <GI50>
1550 nM

$$$$
>  <TEST_SMILES>
CNC(=O)c1nn(C)c2c1C(C)(C)Cc1cnc(Nc3cccc(N4CCN(C)CC4)c3)nc1-2

>  <GI50>
335 nM

$$$$
>  <TEST_SMILES>
Cn1cc(C2=C(c3c4n(c5ccccc35)CCNC4)C(=O)NC2=O)c2ccccc21

>  <GI50>
991 nM

$$$$
>  <TEST_SMILES>
C[C@@H](N)COc1ccc(-c2cnc3ccc(N[C@H](C)c4cccc(F)c4)nn23)cc1

>  <GI50>
1470 nM

$$$$

Consider the additional compound presented here.
Req: Item under review: `COc1cc(-c2cc3ncccc3c3nc(OCCN(C)C)c4cccnc4c23)cc(OC)c1OC` . Reported GI50?
Resp: 671 nM

---

Tested on: HL-60(TB) leukemia
RUN_DESCRIPTION: NCI tumour cell line growth inhibition, 48 h; in the data active = GI50 below about 0.43 µM; inactive = the rest
Please state which outcome applies, choosing from label 1 for active, label 0 for inactive

Examples from the recorded data:
>  <COMPOUND>
C/C(CCC(=O)O)=N/Nc1ccc([N+](=O)[O-])cc1

>  <STUDY_TARGET>
HL-60(TB) leukemia

>  <CLASSIFICATION>
label 0

$$$$
>  <COMPOUND>
COc1cc2c3c(n(CCCN4CCNCC4)c(=O)c2cc1OC)-c1cc2c(cc1C3=O)OCO2

>  <STUDY_TARGET>
HL-60(TB) leukemia

>  <CLASSIFICATION>
label 1

$$$$
>  <COMPOUND>
COc1ccc2c(c1)N(Cc1ccc(Cl)cc1)CCC2N1CCCC1=O (stereo unspecified)

>  <STUDY_TARGET>
HL-60(TB) leukemia

>  <CLASSIFICATION>
label 0

$$$$

Req: Please indicate how the test categorized `CN1CC=C(c2cc(NC(=O)Nc3ccc(Oc4ccnc(NC(=O)C5CC5)c4)c(F)c3)cc(C(F)(F)F)c2)CC1` .
Resp: label 1

Req: Field entry: `O=C(Cn1c(C(=O)c2ccc(Cl)cc2)nc(-c2ccc(Cl)cc2)c1-c1ccc(Cl)cc1)c1ccccc1`
Resp: label 0

Req: Field entry: `COc1cc2c3c(n(CCCN(CCCN(CCCn4c5c(c6ccccc6c4=O)C(=O)c4ccccc4-5)C(=O)OC(C)(C)C)C(=O)OC(C)(C)C)c(=O)c2cc1OC)-c1cc2c(cc1C3=O)OCO2`
Resp: label 0

Req: Field entry: `O=[N+]([O-])c1ccc(/C=C/c2nc3ccc(Cl)cc3[nH]2)cc1`
Resp: label 0

---

Tested on: MDA-MB-435
RUN_DESCRIPTION: NCI tumour cell line growth inhibition, 48 h
Listed here are molecules together with their documented TGI.
Could you give me the number in µM? Just the number is fine.

>  <TEST_SMILES>
N[C@H]1c2c(Br)sc(Br)c2C(=O)[C@H]1O

>  <QUANTITY_KIND>
TGI

>  <UNIT_NAME>
µM

>  <MEASURED>
36.7

$$$$
>  <TEST_SMILES>
COc1ccc(-c2cc(/C=C3\C(=O)Nc4cc(Cl)ccc43)[nH]n2)cc1

>  <QUANTITY_KIND>
TGI

>  <UNIT_NAME>
µM

>  <MEASURED>
2.11

$$$$

Consider the additional molecule presented here.
Req: Item under review: `O=C(CCBr)N1CCN(C(=O)CCBr)CC1` . Reported TGI?
Resp: 245
